Listing: pIC50 of selected binders
Measured On: HLA-A*0203 (human)
Measurement Description: competition with 125I probe peptide, purified HLA
pIC50: −log10 of the molar value.

Binder	pIC50
KLAELVHFL [MAGE3.112L2 KLAELVHFL]	8.23
KMAELVHFV [MAGE3.112M2V9 KMAELVHFV]	7.34
KIWEELSML [MAGE2.220 9-mer KIWEELSML]	6.76
